Assay: stopped-flow CO2 hydration assay
Format: biochemical, Homo sapiens
Conditions Used: read-out: hCA I
Measured Attribute: Ki

Structure As Smiles	Result
NS(=O)(=O)c1cccc(NC(=O)NCCNCc2ccc(-c3ccccc3)cc2)c1	> 10 µM

---

This section lists pKi readings for UniProtKB P00915.
Sequence (P00915 2-261): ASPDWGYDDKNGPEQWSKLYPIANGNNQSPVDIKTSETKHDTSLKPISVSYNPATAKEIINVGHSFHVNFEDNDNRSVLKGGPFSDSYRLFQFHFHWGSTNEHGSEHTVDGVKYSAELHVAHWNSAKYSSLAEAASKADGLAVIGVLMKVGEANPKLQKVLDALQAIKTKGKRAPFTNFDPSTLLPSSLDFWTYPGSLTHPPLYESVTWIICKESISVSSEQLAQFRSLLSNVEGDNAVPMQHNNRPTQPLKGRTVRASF
pKi: −log10 of the molar value.

Molecule	Assay System	pKi
NS(=O)(=O)c1cccc(NC(=O)NCCNCc2ccccc2F)c1 [compound 29]	UniProtKB P00915	6.14
NS(=O)(=O)c1cccc(NC(=O)NCCNCc2ccc([N+](=O)[O-])cc2)c1 [compound 31]	UniProtKB P00915	5.23
NS(=O)(=O)c1cccc(NC(=O)NCCNCc2ccc(O)cc2)c1 [compound 30]	UniProtKB P00915	5.20
NS(=O)(=O)c1ccc(NC(=O)NCCNCc2ccccc2)cc1 [compound 16]	UniProtKB P00915	6.26
COc1cc([N+](=O)[O-])ccc1CNCCNC(=O)Nc1ccc(S(N)(=O)=O)cc1 [compound 23]	UniProtKB P00915	6.10
NS(=O)(=O)c1ccc(NC(=O)NCCNCc2ccc([N+](=O)[O-])cc2)cc1 [compound 21]	UniProtKB P00915	6.28
CN(C)c1ccc(CNCCNC(=O)Nc2cccc(S(N)(=O)=O)c2)cc1 [compound 32]	UniProtKB P00915	5.05
NS(=O)(=O)c1ccc(NC(=O)NCCNCc2ccc(Cl)cc2)cc1 [compound 17]	UniProtKB P00915	6.24

---

Assay System: hCA XII (Homo sapiens, UniProt O43570)
Construct: gene CA12; recombinant, made by the authors as in earlier publications
Sequence (O43570 25-354 limits assumed): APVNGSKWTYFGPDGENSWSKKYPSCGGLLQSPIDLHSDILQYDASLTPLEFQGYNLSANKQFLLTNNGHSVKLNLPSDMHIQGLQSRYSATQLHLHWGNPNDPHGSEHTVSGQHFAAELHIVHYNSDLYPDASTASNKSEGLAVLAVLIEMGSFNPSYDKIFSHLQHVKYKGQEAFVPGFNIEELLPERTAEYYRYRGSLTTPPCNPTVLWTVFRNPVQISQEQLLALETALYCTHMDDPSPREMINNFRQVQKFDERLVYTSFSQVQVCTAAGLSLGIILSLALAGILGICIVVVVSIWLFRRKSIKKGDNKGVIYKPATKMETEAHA
Assay: stopped-flow CO2 hydration assay
Type: biochemical
pKi: −log10 of the molar value.
Lab note: compare pKi against 7. Equal or greater, write Satisfied. Smaller, write Not satisfied.

Structure As Smiles	Assay System	Assigned Class
NS(=O)(=O)c1cccc(NC(=O)NCCNCc2ccc(O)cc2)c1	hCA XII (Homo sapiens, UniProt O43570)	Not satisfied
NS(=O)(=O)c1ccc(NC(=O)NCCNCc2ccccc2F)cc1	hCA XII (Homo sapiens, UniProt O43570)	Satisfied
COc1cc([N+](=O)[O-])ccc1CNCCNC(=O)Nc1cccc(S(N)(=O)=O)c1	hCA XII (Homo sapiens, UniProt O43570)	Satisfied
NS(=O)(=O)c1ccc(NC(=O)NCCNCc2ccc(Cl)cc2)cc1	hCA XII (Homo sapiens, UniProt O43570)	Satisfied
COc1cc([N+](=O)[O-])ccc1CNCCNC(=O)Nc1ccc(S(N)(=O)=O)cc1	hCA XII (Homo sapiens, UniProt O43570)	Satisfied
NS(=O)(=O)c1cccc(NC(=O)NCCNCc2ccc([N+](=O)[O-])cc2)c1	hCA XII (Homo sapiens, UniProt O43570)	Satisfied

---

Assay System: hCA IX (Homo sapiens, UniProt Q16790)
Construct: recombinant, made by the authors as in earlier publications
Assay: stopped-flow CO2 hydration assay
Description: stopped-flow CO2 hydration assay on hCA IX
Hi! Just check whether Ki is below 1000 nM. Below gives label 1, equal or above gives label 0.

Structure As Smiles	Assigned Class
NS(=O)(=O)c1cccc(NC(=O)NCCNCc2ccc(Br)cc2O)c1	label 0
NS(=O)(=O)c1cccc(NC(=O)NCCNCc2ccc(F)cc2)c1	label 0
COc1cc([N+](=O)[O-])ccc1CNCCNC(=O)Nc1cccc(S(N)(=O)=O)c1	label 0
NS(=O)(=O)c1ccc(NC(=O)NCCNCc2ccc(-c3ccccc3)cc2)cc1	label 0
NS(=O)(=O)c1cccc(NC(=O)NCCNCc2ccccc2)c1	label 0
NS(=O)(=O)c1ccc(NC(=O)NCCNCc2ccccc2F)cc1	label 1
NS(=O)(=O)c1ccc(NC(=O)NCCNCc2ccc([N+](=O)[O-])cc2)cc1	label 1
NS(=O)(=O)c1ccc(NC(=O)NCCNCc2ccccc2)cc1	label 0
NS(=O)(=O)c1cccc(NC(=O)NCCNCc2ccccc2F)c1	label 0

---

Assay System: hCA XII (Homo sapiens, UniProt O43570)
Construct: recombinant, made by the authors as in earlier publications
Assay: stopped-flow CO2 hydration assay
Listed compounds paired with reported Ki

Compound	Ki (µM)
NS(=O)(=O)c1cccc(NC(=O)NCCNCc2ccc(F)cc2)c1 [compound 28]	0.0713
NS(=O)(=O)c1ccc(NC(=O)NCCNCc2ccc([N+](=O)[O-])cc2)cc1 [compound 21]	0.0775
NS(=O)(=O)c1ccc(NC(=O)NCCNCc2ccc(-c3ccccc3)cc2)cc1 [compound 25]	0.0637
